measurement_target: T1, human IL-1β (human, UniProt P01584 117-269)
T1 construct: it has 153 residues and begins APVRS; also called hIL-1β; recombinant purified human IL-1β
method_notes: SPR (Biacore 3000), antibody captured, human IL-1β as analyte, 25 C
Documented kon across a set of binders
Write the value in M⁻¹ s⁻¹ as a bare number.

Ask: Looking for the measured kon of humanized anti-human IL-1β antibody 1B12.5 (antibody, V domains shown, Cloned into IgG expression vectors and made as full-length humanized antibody; also called h1B12VH.2a/h1B12VL.1a; combination 5) VH: EVQLVESGGGLVQPGGSLRLSCAVSGFTLSDYGVSWIRQAPGKGLEWLGLIWGGGDTYYNSPLKSRLTISKDNSKSTVYLQMNSLRAEDTAVYYCAKQRTLWGYDLYGMDYWGQGTLVTVSS VL: DTQVTQSPSSLSASVGDRVTITCITSTDIDVDMNWYQQKPGKPPKLLISQGNTLRPGVPSRFSSSGSGTDFTFTISSLQPEDFATYYCLQSDNLPLTFGQGTKLEIK , can you help?
Reply: 6.24e+06

Ask: Input humanized anti-human IL-1β antibody 1B12.8 (antibody, V domains shown, Cloned into IgG expression vectors and made as full-length humanized antibody; also called h1B12VH.2a/h1B12VL.2b; combination 8) VH: EVQLVESGGGLVQPGGSLRLSCAVSGFTLSDYGVSWIRQAPGKGLEWLGLIWGGGDTYYNSPLKSRLTISKDNSKSTVYLQMNSLRAEDTAVYYCAKQRTLWGYDLYGMDYWGQGTLVTVSS VL: ETTVTQSPAFLSVTPGEKVTITCITSTDIDVDMNWYQQKPDQPPKLLISQGNTLRPGVPSRFSSSGSGTDFTFTISSLEAEDAATYYCLQSDNLPLTFGQGTKLEIK
Reply: 5.94e+06

Continuing:
Ask: Recorded kon of humanized anti-human IL-1β antibody 1B12.4 (antibody, V domains shown, Cloned into IgG expression vectors and made as full-length humanized antibody; also called h1B12VH.1a/h1B12VL.2b; combination 4) VH: EVQLQESGPGLVKPSETLSLTCTVSGFSLSDYGVSWIRQPPGKGLEWLGLIWGGGDTYYNSPLKSRLTISKDNSKSQVSLKLSSVTAADTAVYYCAKQRTLWGYDLYGMDYWGQGTLVTVSS VL: ETTVTQSPAFLSVTPGEKVTITCITSTDIDVDMNWYQQKPDQPPKLLISQGNTLRPGVPSRFSSSGSGTDFTFTISSLEAEDAATYYCLQSDNLPLTFGQGTKLEIK , please.
Reply: 6.01e+06

Ask: Continue with humanized anti-human IL-1β antibody 1B12.7 (antibody, V domains shown, Cloned into IgG expression vectors and made as full-length humanized antibody; also called h1B12VH.2a/h1B12VL.2a; combination 7) VH: EVQLVESGGGLVQPGGSLRLSCAVSGFTLSDYGVSWIRQAPGKGLEWLGLIWGGGDTYYNSPLKSRLTISKDNSKSTVYLQMNSLRAEDTAVYYCAKQRTLWGYDLYGMDYWGQGTLVTVSS VL: DTVVTQSPAFLSVTPGEKVTITCITSTDIDVDMNWYQQKPDQPPKLLISQGNTLRPGVPSRFSSSGSGTDFTFTISSLEAEDAATYYCLQSDNLPLTFGQGTKLEIK
Reply: 5.76e+06

src = patent US20110142761A1
